Target: recombinant human GR (Homo sapiens)
Construct: purchased Panvera/Invitrogen P2812 (kit P2893)
Sequence (P04150 1-777): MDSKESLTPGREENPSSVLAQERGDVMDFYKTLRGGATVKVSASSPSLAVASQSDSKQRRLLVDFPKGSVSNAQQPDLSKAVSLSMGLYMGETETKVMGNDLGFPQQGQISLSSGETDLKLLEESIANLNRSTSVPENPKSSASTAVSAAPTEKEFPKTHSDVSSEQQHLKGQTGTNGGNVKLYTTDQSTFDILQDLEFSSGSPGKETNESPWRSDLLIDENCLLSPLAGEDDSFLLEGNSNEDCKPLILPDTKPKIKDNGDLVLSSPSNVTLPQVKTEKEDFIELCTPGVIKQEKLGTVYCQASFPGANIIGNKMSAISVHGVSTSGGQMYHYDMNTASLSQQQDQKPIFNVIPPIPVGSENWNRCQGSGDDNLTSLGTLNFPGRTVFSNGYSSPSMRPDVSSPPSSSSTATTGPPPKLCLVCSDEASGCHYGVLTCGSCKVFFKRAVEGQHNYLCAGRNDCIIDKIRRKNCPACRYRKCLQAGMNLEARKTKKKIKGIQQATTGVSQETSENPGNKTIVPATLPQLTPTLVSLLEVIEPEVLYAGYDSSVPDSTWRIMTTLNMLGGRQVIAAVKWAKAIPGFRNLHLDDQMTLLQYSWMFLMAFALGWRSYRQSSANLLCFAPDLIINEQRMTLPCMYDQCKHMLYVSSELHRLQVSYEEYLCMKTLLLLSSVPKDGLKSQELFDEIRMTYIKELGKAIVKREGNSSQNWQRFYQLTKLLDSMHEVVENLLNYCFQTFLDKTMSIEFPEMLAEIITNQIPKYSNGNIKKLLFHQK
Test: Human Glucocorticoid Receptor (GR) Assay, fluorescence polarization competition with GS Red tracer
Settings: 2 hours at room temperature, 100% control 10 μM Dexamethasone, XLfit model 205, read-out: Inhibition of GR binding, IC50
pIC50: −log10 of the molar value.
property measured: pIC50

Some compounds with known pIC50 results, for comparison:
Request: Supply measured pIC50 of `COCC(=O)O[C@]1(C(=O)SCC#N)CC[C@H]2[C@@H]3CCC4=Cc5c(cnn5-c5cccc(C(=O)NCc6cccnc6)c5)C[C@]4(C)[C@H]3[C@@H](O)C[C@@]21C` in your reply.
Response: 8.82

Request: Supply measured pIC50 of `CCC(=O)O[C@]1(C(=O)SCF)CC[C@H]2[C@@H]3CCC4=Cc5c(cnn5-c5cccc(C(=O)NCCOC)c5)C[C@]4(C)[C@H]3[C@@H](O)C[C@@]21C` in your reply.
Response: 9.09

Request: Supply measured pIC50 of `CCC(=O)O[C@]1(C(=O)SCC#N)CC[C@H]2[C@@H]3CCC4=Cc5c(cnn5-c5cccc(C(=O)NCCOC)c5)C[C@]4(C)[C@H]3[C@@H](O)C[C@@]21C` in your reply.
Response: 9.00

Request: Supply measured pIC50 of `CSCCNC(=O)c1cccc(-n2ncc3c2C=C2CC[C@@H]4[C@H]([C@@H](O)C[C@@]5(C)[C@H]4CC[C@]5(OC(=O)C4CC4)C(=O)SCF)[C@@]2(C)C3)c1` in your reply.
Response: 8.82

1: CCC(=O)O[C@]1(C(=O)SCF)CC[C@H]2[C@@H]3C[C@H](C)C4=Cc5c(cnn5-c5cccc(C(=O)N[C@@H](C)C(N)=O)c5)C[C@]4(C)[C@H]3[C@@H](O)C[C@@]21C
2: CCC(=O)O[C@]1(C(=O)SCCO)CC[C@H]2[C@@H]3CCC4=Cc5c(cnn5-c5cccc(C(=O)N6CCC[C@@H]6C(N)=O)c5)C[C@]4(C)[C@@]3(F)[C@@H](O)C[C@@]21C
Request: Between 1 and 2 , which one has the lower reported pIC50 value? Selection: enter the item's label.
Response: 2

a: CCC(=O)O[C@]1(C(=O)SCF)CC[C@H]2[C@@H]3CCC4=Cc5c(cnn5-c5cccc(C(=O)NC6CCCC6)c5)C[C@]4(C)[C@H]3[C@@H](O)C[C@@]21C
b: CCC(=O)O[C@]1(C(=O)SCF)CC[C@H]2[C@@H]3CCC4=Cc5c(cnn5-c5cccc(C(=O)NCC(N)=O)c5)C[C@]4(C)[C@@]3(F)[C@@H](O)C[C@@]21C
Request: Between these two entries, a and b , state which has the higher pIC50. Selection: enter the item's label.
Response: b
(b: 8.66, a: 8.44)

P: CCC(=O)O[C@]1(C(=O)SC)CC[C@H]2[C@@H]3CCC4=Cc5c(cnn5-c5cccc(C(=O)N6CCC[C@@H]6C(N)=O)c5)C[C@]4(C)[C@@]3(F)[C@@H](O)C[C@@]21C
Q: C[C@]12Cc3cnn(-c4cccc(C(=O)N5CCC[C@@H]5C(N)=O)c4)c3C=C1CC[C@@H]1[C@@H]2[C@@H](O)C[C@@]2(C)[C@H]1CC[C@]2(OC(=O)c1cocn1)C(=O)SCF
R: CCC(=O)O[C@]1(C(=O)SCF)[C@H](C)C[C@H]2[C@@H]3CCC4=Cc5c(cnn5-c5cccc(C(=O)N[C@H](C)C(N)=O)c5)C[C@]4(C)[C@@]3(F)[C@@H](O)C[C@@]21C
Request: Rank descending by pIC50. Present the labels in the sequence the task asks for.
Response: R, P, Q
(R: 8.70, P: 8.48, Q: 8.09)

I: C[C@]12Cc3cnn(-c4cccc(C(=O)NCc5cccnc5)c4)c3C=C1CC[C@@H]1[C@@H]2[C@@H](O)C[C@@]2(C)[C@H]1CC[C@]2(OC(=O)c1cocn1)C(=O)SCF
II: COCC(=O)O[C@]1(C(=O)SCF)[C@H](C)C[C@H]2[C@@H]3CCC4=Cc5c(cnn5-c5cccc(C(=O)N6CCC[C@@H]6C(N)=O)c5)C[C@]4(C)[C@@]3(F)[C@@H](O)C[C@@]21C
Request: Between I and II , which one has the lower reported pIC50 value? Selection: enter the item's label.
Response: II
(II: 8.12, I: 8.62)
